Entries and their measured pKd follow.
Target: T1, human IL-18BP (human, UniProt O95998 31-194)
T1 construct: UniProt printed as 095998; also called hIL-18BP
T1 sequence: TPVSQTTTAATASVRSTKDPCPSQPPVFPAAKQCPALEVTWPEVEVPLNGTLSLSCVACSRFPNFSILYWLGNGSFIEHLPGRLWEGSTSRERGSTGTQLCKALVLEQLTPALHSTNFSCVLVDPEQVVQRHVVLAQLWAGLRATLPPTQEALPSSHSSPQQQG
Assay: BLI, apparent KD
Keep in mind that pKd stands for -log10 of concentration in molar terms.

binder	pKd
SA301a LC-H92F (antibody, V domains shown) VH: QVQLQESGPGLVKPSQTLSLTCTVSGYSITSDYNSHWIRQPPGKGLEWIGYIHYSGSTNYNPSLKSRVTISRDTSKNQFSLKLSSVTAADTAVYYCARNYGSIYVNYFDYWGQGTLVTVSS VL: EIVLTQSPATLSLSPGERATLSCSASSSVSYMYWYQQKPGQAPRPLIYRTSNLASGIPARFSGSGSGTDFTLTISSLEPEDFAVYYCQQYFSYPTFGGGTKVEIK	9.15
SA301a LC-Y94M (antibody, V domains shown) VH: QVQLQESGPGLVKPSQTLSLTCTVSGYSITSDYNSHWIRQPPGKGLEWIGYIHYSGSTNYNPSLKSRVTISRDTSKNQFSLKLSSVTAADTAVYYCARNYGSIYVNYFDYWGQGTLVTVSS VL: EIVLTQSPATLSLSPGERATLSCSASSSVSYMYWYQQKPGQAPRPLIYRTSNLASGIPARFSGSGSGTDFTLTISSLEPEDFAVYYCQQYHSMPTFGGGTKVEIK	8.71
SA301a LC-T96V (antibody, V domains shown) VH: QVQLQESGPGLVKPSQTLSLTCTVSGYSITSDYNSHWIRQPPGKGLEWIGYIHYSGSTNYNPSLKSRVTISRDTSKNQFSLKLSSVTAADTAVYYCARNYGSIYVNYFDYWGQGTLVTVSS VL: EIVLTQSPATLSLSPGERATLSCSASSSVSYMYWYQQKPGQAPRPLIYRTSNLASGIPARFSGSGSGTDFTLTISSLEPEDFAVYYCQQYHSYPVFGGGTKVEIK	9.68

So what does the record say about pKd for SA301a LC-T96D (antibody, V domains shown) VH: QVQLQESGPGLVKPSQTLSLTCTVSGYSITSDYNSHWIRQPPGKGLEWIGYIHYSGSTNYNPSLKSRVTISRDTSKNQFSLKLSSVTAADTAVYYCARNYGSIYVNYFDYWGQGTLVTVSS VL: EIVLTQSPATLSLSPGERATLSCSASSSVSYMYWYQQKPGQAPRPLIYRTSNLASGIPARFSGSGSGTDFTLTISSLEPEDFAVYYCQQYHSYPDFGGGTKVEIK ?
9.89

So what does the record say about pKd for SA301a LC-Q89V (antibody, V domains shown) VH: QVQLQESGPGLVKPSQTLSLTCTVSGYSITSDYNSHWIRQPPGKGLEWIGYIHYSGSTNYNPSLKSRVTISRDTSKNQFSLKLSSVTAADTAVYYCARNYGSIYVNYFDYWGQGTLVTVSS VL: EIVLTQSPATLSLSPGERATLSCSASSSVSYMYWYQQKPGQAPRPLIYRTSNLASGIPARFSGSGSGTDFTLTISSLEPEDFAVYYCVQYHSYPTFGGGTKVEIK ?
9.29

So what does the record say about pKd for SA301a LC-Q90A (antibody, name in Kabat numbering, V domains shown, IgG1 kappa) VH: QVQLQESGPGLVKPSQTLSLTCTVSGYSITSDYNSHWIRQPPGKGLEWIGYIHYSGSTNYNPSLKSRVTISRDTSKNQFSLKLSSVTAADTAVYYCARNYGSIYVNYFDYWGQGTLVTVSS VL: EIVLTQSPATLSLSPGERATLSCSASSSVSYMYWYQQKPGQAPRPLIYRTSNLASGIPARFSGSGSGTDFTLTISSLEPEDFAVYYCQAYHSYPTFGGGTKVEIK ?
8.97

So what does the record say about pKd for SA301a LC-Q90V (antibody, name in Kabat numbering, V domains shown, IgG1 kappa) VH: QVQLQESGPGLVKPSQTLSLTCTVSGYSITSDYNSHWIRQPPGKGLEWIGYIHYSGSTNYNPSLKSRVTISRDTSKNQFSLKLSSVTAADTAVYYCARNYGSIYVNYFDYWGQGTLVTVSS VL: EIVLTQSPATLSLSPGERATLSCSASSSVSYMYWYQQKPGQAPRPLIYRTSNLASGIPARFSGSGSGTDFTLTISSLEPEDFAVYYCQVYHSYPTFGGGTKVEIK ?
9.54

So what does the record say about pKd for SA301a LC-Y91M (antibody, name in Kabat numbering, V domains shown, IgG1 kappa) VH: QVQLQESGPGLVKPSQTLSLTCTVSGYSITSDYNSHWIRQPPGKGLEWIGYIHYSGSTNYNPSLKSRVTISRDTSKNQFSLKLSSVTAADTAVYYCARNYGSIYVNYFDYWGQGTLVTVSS VL: EIVLTQSPATLSLSPGERATLSCSASSSVSYMYWYQQKPGQAPRPLIYRTSNLASGIPARFSGSGSGTDFTLTISSLEPEDFAVYYCQQMHSYPTFGGGTKVEIK ?
9.66

So what does the record say about pKd for SA301a LC-Y94R (antibody, V domains shown) VH: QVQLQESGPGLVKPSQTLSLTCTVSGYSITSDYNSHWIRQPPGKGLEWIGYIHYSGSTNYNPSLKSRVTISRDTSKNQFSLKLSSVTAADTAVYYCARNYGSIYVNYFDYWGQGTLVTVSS VL: EIVLTQSPATLSLSPGERATLSCSASSSVSYMYWYQQKPGQAPRPLIYRTSNLASGIPARFSGSGSGTDFTLTISSLEPEDFAVYYCQQYHSRPTFGGGTKVEIK ?
9.54

So what does the record say about pKd for SA301a LC-Q90R (antibody, name in Kabat numbering, V domains shown, IgG1 kappa) VH: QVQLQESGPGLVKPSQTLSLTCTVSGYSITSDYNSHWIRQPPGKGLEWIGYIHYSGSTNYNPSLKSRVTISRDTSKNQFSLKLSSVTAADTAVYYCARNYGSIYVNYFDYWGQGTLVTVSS VL: EIVLTQSPATLSLSPGERATLSCSASSSVSYMYWYQQKPGQAPRPLIYRTSNLASGIPARFSGSGSGTDFTLTISSLEPEDFAVYYCQRYHSYPTFGGGTKVEIK ?
9.29
